Target: T1, human Nectin-4 extracellular antigen hNectin-4-His (human, UniProt Q96NY8 32-349)
T1 construct: C-terminal 8xHis tag included
T1 sequence: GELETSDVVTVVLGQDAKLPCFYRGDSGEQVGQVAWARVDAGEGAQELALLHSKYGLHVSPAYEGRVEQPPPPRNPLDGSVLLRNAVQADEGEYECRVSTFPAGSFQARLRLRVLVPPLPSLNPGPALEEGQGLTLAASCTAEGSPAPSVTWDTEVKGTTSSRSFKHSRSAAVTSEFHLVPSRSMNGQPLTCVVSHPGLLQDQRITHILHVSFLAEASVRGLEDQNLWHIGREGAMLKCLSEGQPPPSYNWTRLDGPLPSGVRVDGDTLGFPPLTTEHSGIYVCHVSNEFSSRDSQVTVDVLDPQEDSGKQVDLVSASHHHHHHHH
Test: SPR, antibody on Protein A chip, 1:1 fit
Each entry below lists one item and its recorded koff value.
The answer is to be given in s⁻¹; state only the numeric part.

Binder	Measurement type	Reported value
antibody 1G8-2F2 (antibody, human IgG1, kappa, V domains shown) VH: EVQLVESGGGLVQPGGSLRLSCAASGDIFGSYAMSWVRQAPGKGLEWVSRISSHGASRDYADSVKGRFTISRDNSKNTLYLQMNSLRAEDTAVYYCARQTEDRSYGYDLDYWGQGTLVTVSS VL: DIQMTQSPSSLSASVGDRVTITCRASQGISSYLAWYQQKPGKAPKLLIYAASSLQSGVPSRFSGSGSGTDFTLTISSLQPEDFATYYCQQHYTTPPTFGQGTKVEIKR	koff	0.00166
antibody 1G8-1E10 (antibody, human IgG1, kappa, V domains shown) VH: EVQLVESGGGLVQPGGSLRLSCAASGDSFSTYAMSWVRQAPGKGLEWVSRISGSGDGKDYADSVKGRFTISRDNSKNTLYLQMNSLRAEDTAVYYCARQTEDRSYGYDLDYWGQGTLVTVSS VL: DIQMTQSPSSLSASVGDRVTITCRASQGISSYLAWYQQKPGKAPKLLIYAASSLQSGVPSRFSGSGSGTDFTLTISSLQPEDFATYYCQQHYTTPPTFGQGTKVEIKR	koff	0.00087

Now for a further binder.
The binder identified as antibody 10F4-1C3 (antibody, human IgG1, kappa, V domains shown) VH: EVQLVESGGGLVQPGGSLRLSCAASGYSFSDYWMSWVRQAPGKGLEWVSSIKQTGGVKHYADSVKGRFTISRDNSKNTLYLQMNSLRAEDTAVYYCAREYSDVVDYVSVRTPLDYWGQGTLVTVSS VL: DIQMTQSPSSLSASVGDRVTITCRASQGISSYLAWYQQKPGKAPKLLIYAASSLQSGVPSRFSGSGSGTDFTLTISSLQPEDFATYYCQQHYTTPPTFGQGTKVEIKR registered its koff at 0.000218
